The following compounds are listed with their measured HC50 values.
- Tested on: human red blood cells (RBCs)
- Assay type: cell-based
- condition_label: red cells of human

| compound | value_observed |
| --- | --- |
| CCCCCCCCCCCCCC(=O)N[C@@H](CCCCN)C(=O)N[C@@H](CCCCN)C(=O)N[C@@H](CCCCN)C(N)=O [Peptide 3M, C14-KKK-NH2] | >512 µg/mL |
| CCCCCCCCCCCCCCCCCC(=O)N[C@@H](CCCCN)C(N)=O [Peptide 1S, C18-K-NH2] | >512 µg/mL |

API: value(readout= HC50, system= human red blood cells (RBCs), query= CCCCCCCCCCCCCC(=O)N[C@@H](CCCC[N+](C)(C)C)C(=O)N[C@@H](CCCC[N+](C)(C)C)C(N)=O [Peptide 2Mq, C14-K(Me3)^+K(Me3)^+-NH2] ) >512 µg/mL
